Cited source: patent US20260152527A1

target: human recombinant MC4R (CHO-K1/Gα15 stable cell line, GenScript) (human, UniProt P32245 1-332); assay: cell-based or functional assay
Sequence (P32245 whole entry): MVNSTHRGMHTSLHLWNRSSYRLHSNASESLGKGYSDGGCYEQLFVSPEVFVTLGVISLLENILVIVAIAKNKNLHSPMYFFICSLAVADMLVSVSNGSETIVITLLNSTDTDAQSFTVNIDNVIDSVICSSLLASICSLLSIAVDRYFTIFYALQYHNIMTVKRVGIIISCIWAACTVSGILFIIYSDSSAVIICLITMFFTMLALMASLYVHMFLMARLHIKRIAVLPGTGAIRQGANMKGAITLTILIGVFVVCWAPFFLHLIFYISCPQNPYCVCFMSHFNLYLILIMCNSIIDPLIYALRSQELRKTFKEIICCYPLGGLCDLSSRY
Starred links: 1 amine or outer side, 2 acyl side, 3 side chain; linkers in the order of their positions; H or OH if unused. Positions of bridges follow the written chain, without caps; N, C: chain ends. Non-standard residues stand in square brackets, D forms with d. Phe(OCH3) = O-methyl-tyrosine, COc1ccc(C[C@H](N[*:1])C(=O)[*:2])cc1; NMeW = CN[C@@H](Cc1c[nH]c2ccccc12)C(=O)O; Lys(N3) = [N-]=[N+]=NCCCC[C@H](N)C(=O)O; Phe(4-NH2) = Nc1ccc(C[C@H](N)C(=O)O)cc1; NMeR = CN[C@@H](CCCNC(=N)N)C(=O)O; Nle = CCCC[C@H](N)C(=O)O; Pra = C#CC[C@H](N)C(=O)O
Quantity measured: MC4R IC50 (nM)

binder="{CH2CO}-EHFRWC-NH2 (thioether N-6; SMILES N=C(N)NCCC[C@@H]1NC(=O)[C@H](Cc2ccccc2)NC(=O)[C@H](Cc2c[nH]cn2)NC(=O)[C@H](CCC(=O)O)NC(=O)CSC[C@@H](C(N)=O)NC(=O)[C@H](Cc2c[nH]c3ccccc23)NC1=O) [KR-011]" value_measured=104

I: Ac-[Nle][Lys(N3)][Phe(4-NH2)][dF]RW[Pra]-NH2 (triazole 2-7) [KR-047]
II: Ac-[Nle][Lys(N3)]H[dF][NMeR][NMeW][Pra]-NH2 (triazole 2-7) [KR-050]
III: Ac-[Nle][Lys(N3)][Phe(OCH3)][dF]RW[Pra]K-NH2 (triazole 2-7; not fully specified; printed as Ac-Nle-[Lys(N3)-Phe(OCH3)-DPhe-Arg-Trp-Pra]-Lys-NH2) [KR-061]
Sort these binders on MC4R IC50 so the largest reading comes first. Reply with the labels, ordered as the question asks.
II, III, I
(II: 242 nM, III: 101 nM, I: 17.9 nM)
